Data provenance is PubChem BioAssay AID1159580.

Catalogue of normalized growth readings, one per entry.
run.description: chemical genetic growth profiling, strain panel (AID 1159580);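 note: tested at 20 µM; growth read once vehicle control cultures reached saturation at 30 °C; 1 = growth at the plate median or of vehicle wells; lower values mean less growth of the strain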
condition.context: S. cerevisiae deletion strains, growth OD, locus YKL085W, strain MDH1, stronger effect = lower value
Hit rate of the full screen: of about 5,500 compounds, about 2,000 (36%) were called active. Roughly 18% stayed inconclusive and do not appear here. Some of the results follow.
I'd appreciate a reply containing only the number, no unit.

| compound | measured.value |
| --- | --- |
| Cc1c(C(N)=O)cc([N+](=O)[O-])cc1[N+](=O)[O-] | 1.02 |

Any idea what its normalized growth is? The compound is NCCCN 0.984

Any idea what its normalized growth is? The compound is CC1(C)S[C@@H]2C(N3C(=O)[C@@H](c4ccccc4)NC3(C)C)C(=O)N2[C@H]1C(=O)O (stereo partly specified) 1.02

Any idea what its normalized growth is? The compound is Nc1nc(/C(=C/CC(=O)O)C(=O)N[C@@H]2C(=O)N3C(C(=O)O)=CCS[C@H]23)cs1 0.987

Any idea what its normalized growth is? The compound is O=C(O)c1ccccc1O 0.989

Any idea what its normalized growth is? The compound is CO[C@H]1[C@H](O)[C@@H](O[C@H]2CC[C@]3(C=O)C4CC[C@]5(C)[C@@H](C6=CC(=O)OC6)CC[C@]5(O)C4CC[C@@H]3C2)O[C@@H](C)[C@@H]1O (stereo partly specified) 0.98

Any idea what its normalized growth is? The compound is CC1(C)[C@@H]2CC[C@@]1(C)C(=O)C2 1.01

Any idea what its normalized growth is? The compound is CC(=O)N1CCCC1C(=O)O (stereo unspecified) 1.01

Any idea what its normalized growth is? The compound is CC[C@@]1(O)C(=O)OCc2c1cc1n(c2=O)Cc2cc3cc(O)ccc3nc2-1 1.01

Any idea what its normalized growth is? The compound is C[C@@H](CO)NC(=O)C1C=C2c3cccc4[nH]cc(c34)C[C@H]2N(C)C1 (stereo partly specified) 0.982

Any idea what its normalized growth is? The compound is COc1cc(C(=O)N2CCOCC2)cc(OC)c1OC 0.353
